target: cIAP1-BIR3 (Homo sapiens, UniProt Q13490)
Construct: cIAP1-BIR3
Sequence (Q13490 253-363 limits assumed): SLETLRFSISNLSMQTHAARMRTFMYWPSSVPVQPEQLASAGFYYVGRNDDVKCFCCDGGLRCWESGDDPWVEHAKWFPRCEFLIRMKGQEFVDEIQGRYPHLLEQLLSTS
assay_method_text: cIAP1-BIR3 fluorescence polarization binding assay
condition: FP, probe AbuRPFK-5FAM (SM5F) 5 nM, cIAP1-BIR3 15 nM, 60 min at 25° C.
pIC50: −log10 of the molar value.
# key: entry, value: pIC50
quantity: pIC50

compound	target	endpoint_result
CN[C@@H](C)C(=O)NC(C(=O)N1CCC[C@H]1C(=O)N[C@@H]1CCCc2cc(N3CCN(c4ccc5c(c4)CCC[C@H]5NC(=O)[C@@H]4CCCN4C(=O)[C@@H](NC(=O)[C@H](C)NC)C4CCCCC4)CC3)ccc21)C1CCCCC1 (some centres unmarked)	cIAP1-BIR3 (Homo sapiens, UniProt Q13490)	7.00 to 8.00
CN[C@@H](C)C(=O)N[C@H](C(=O)N1C[C@@H](O)C[C@H]1C(=O)N[C@@H]1CCCc2c(-c3ccc(-c4cccc5c4CCC[C@H]5NC(=O)[C@@H]4C[C@H](O)CN4C(=O)[C@@H](NC(=O)[C@H](C)NC)C4CCCCC4)cc3)cccc21)C1CCCCC1	cIAP1-BIR3 (Homo sapiens, UniProt Q13490)	8.00 to 9.00
CN[C@@H](C)C(=O)N[C@@H](C)C(=O)N1CCC[C@H]1C(=O)N[C@@H]1CCCc2c(-c3ccc(-c4cccc5c4CCC[C@H]5NC(=O)[C@@H]4CCCN4C(=O)[C@H](C)NC(=O)[C@H](C)NC)cc3)cccc21	cIAP1-BIR3 (Homo sapiens, UniProt Q13490)	8.00 to 9.00
CN[C@@H](C)C(=O)N[C@H](C(=O)N1CCC[C@H]1C(=O)N[C@@H]1CCCc2c(-c3ccc(-c4cccc5c4CCC[C@H]5NC(=O)[C@@H]4CCCN4C(=O)[C@@H](NC(=O)[C@H](C)NC)C(C)C)cc3)cccc21)C(C)C	cIAP1-BIR3 (Homo sapiens, UniProt Q13490)	8.00 to 9.00
CN[C@@H](C)C(=O)N[C@H](C(=O)N1CCC[C@H]1C(=O)N[C@@H]1CCCc2c(-c3cccc(-c4cccc5c4CCC[C@H]5NC(=O)[C@@H]4CCCN4C(=O)[C@@H](NC(=O)[C@H](C)NC)C4CCCCC4)c3)cccc21)C1CCCCC1	cIAP1-BIR3 (Homo sapiens, UniProt Q13490)	8.00 to 9.00
CN[C@@H](C)C(=O)N[C@H](C(=O)N1CCC[C@H]1C(=O)N[C@@H]1CCCc2c(OCCCCCOc3cccc4c3CCC[C@H]4NC(=O)[C@@H]3CCCN3C(=O)[C@@H](NC(=O)[C@H](C)NC)C(C)C)cccc21)C(C)C	cIAP1-BIR3 (Homo sapiens, UniProt Q13490)	8.00 to 9.00
CN[C@@H](C)C(=O)N[C@H](C(=O)N1CCC[C@H]1C(=O)N[C@@H]1CCCc2c1cccc2N1CCN(c2cccc3c2CCC[C@H]3NC(=O)[C@@H]2CCCN2C(=O)[C@@H](NC(=O)[C@H](C)NC)C(C)(C)C)CC1)C(C)(C)C	cIAP1-BIR3 (Homo sapiens, UniProt Q13490)	8.00 to 9.00
CN[C@@H](C)C(=O)N[C@H](C(=O)N1CCC[C@H]1C(=O)N[C@@H]1CCCc2c(NC(=O)c3cccc4c3CCC[C@H]4NC(=O)[C@@H]3CCCN3C(=O)[C@@H](NC(=O)[C@H](C)NC)C3CCCCC3)cccc21)C1CCCCC1	cIAP1-BIR3 (Homo sapiens, UniProt Q13490)	8.00 to 9.00

* * *

target: XIAP-BIR3 (Homo sapiens)
Construct: XIAP-BIR3
assay_method_text: XIAP-BIR3 fluorescence polarization binding assay
condition: FP, probe AbuRPFK-5FAM (SM5F) 5 nM, XIAP-BIR3 40 nM, 60 min at 25° C.
quantity: IC50

compound	quantity	endpoint_result
CN[C@@H](C)C(=O)N[C@H](C(=O)N1CCC[C@H]1C(=O)N[C@@H]1CCCc2c(OCCc3ccc(CCOc4cccc5c4CCC[C@H]5NC(=O)[C@@H]4CCCN4C(=O)[C@@H](NC(=O)[C@H](C)NC)C4CCCCC4)cc3)cccc21)C1CCCCC1 [Compound IV]	IC50	0.1 to 1 µM
CN[C@@H](C)C(=O)N[C@H](C(=O)N1CCC[C@H]1C(=O)N[C@@H]1CCc2c(-c3cccc4c3CC[C@H]4NC(=O)[C@@H]3CCCN3C(=O)[C@@H](NC(=O)[C@H](C)NC)C3CCCCC3)cccc21)C1CCCCC1	IC50	0.01 to 0.1 µM
CC[C@H](NC(=O)[C@H](C)NC)C(=O)N1CCC[C@H]1C(=O)N[C@@H]1CCCc2c(-c3cccc4c3CCC[C@H]4NC(=O)[C@@H]3CCCN3C(=O)[C@H](CC)NC(=O)[C@H](C)NC)cccc21	IC50	0.01 to 0.1 µM
CN[C@@H](C)C(=O)N[C@H](C(=O)N1CCC[C@H]1C(=O)N[C@@H]1CCCc2c(OCCc3ccc(CCOc4cccc5c4CCC[C@H]5NC(=O)[C@@H]4CCCN4C(=O)[C@@H](NC(=O)[C@H](C)NC)C4CCCCC4)cc3)cccc21)C1CCCCC1 [Compound I]	IC50	0.01 to 0.1 µM

* * *

Parameter pIC50: see the listing below.
target: XIAP-BIR3 (Homo sapiens, UniProt P98170)
Construct: XIAP-BIR3
Sequence (P98170 241-356 limits assumed): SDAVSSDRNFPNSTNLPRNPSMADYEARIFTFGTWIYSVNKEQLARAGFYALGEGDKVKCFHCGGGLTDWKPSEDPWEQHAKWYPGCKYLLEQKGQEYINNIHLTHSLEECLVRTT
assay_method_text: XIAP-BIR3 fluorescence polarization binding assay
condition: FP, probe AbuRPFK-5FAM (SM5F) 5 nM, XIAP-BIR3 40 nM, 60 min at 25° C.
pIC50: −log10 of the molar value.

compound	target	pIC50
CN[C@@H](C)C(=O)N[C@H](C(=O)N1CCC[C@H]1C(=O)N[C@@H]1CCCc2c(-c3cccc(-c4cccc5c4CCC[C@H]5NC(=O)[C@@H]4CCCN4C(=O)[C@@H](NC(=O)[C@H](C)NC)C(C)C)c3)cccc21)C(C)C [Compound III-E]	XIAP-BIR3 (Homo sapiens, UniProt P98170)	8.00 to 9.00
CN[C@@H](C)C(=O)N[C@H](C(=O)N1CCC[C@H]1C(=O)N[C@@H]1CCCc2c(-c3cccc(-c4cccc5c4CCC[C@H]5NC(=O)[C@@H]4CCCN4C(=O)[C@@H](NC(=O)[C@H](C)NC)C(C)(C)C)c3)cccc21)C(C)(C)C [Compound III-F]	XIAP-BIR3 (Homo sapiens, UniProt P98170)	7.00 to 8.00
CN[C@@H](C)C(=O)N[C@H](C(=O)N1CCC[C@H]1C(=O)N[C@@H]1CCCc2c(-c3cccc4c3CCC[C@H]4NC(=O)[C@@H]3CCCN3C(=O)[C@@H](NC(=O)[C@H](C)NC)C(C)C)cccc21)C(C)C [Compound V-M]	XIAP-BIR3 (Homo sapiens, UniProt P98170)	7.00 to 8.00
CC[C@H](NC(=O)[C@H](C)NC)C(=O)N1CCC[C@H]1C(=O)N[C@@H]1CCCc2c(-c3cccc(-c4cccc5c4CCC[C@H]5NC(=O)[C@@H]4CCCN4C(=O)[C@H](CC)NC(=O)[C@H](C)NC)c3)cccc21 [III-D]	XIAP-BIR3 (Homo sapiens, UniProt P98170)	7.00 to 8.00

* * *

Reported pIC50 by item:
target: XIAP-BIR3 (Homo sapiens, UniProt P98170)
Construct: XIAP-BIR3
assay_method_text: XIAP-BIR3 fluorescence polarization binding assay
condition: FP, probe AbuRPFK-5FAM (SM5F) 5 nM, XIAP-BIR3 40 nM, 60 min at 25° C.
Text: IAPs are one main cause of cancer development and may result from overexpression of anti-apoptotic proteins. This protocol establishes three binding assays for […] Bir3 domain, cIAP1 and cIAP2 using FP (fluorescence polariation) technology. The fluorescence probe used is a synthetic peptide conjugated to 5-carboxyfluorescein (AbuRPFK-5FAM). The fluorescence polarization value (mP) was detected by Envision, which was used to reflect the binding degree of protein and fluorescent marker. • a. […]
pIC50: −log10 of the molar value.

smiles_text	pIC50
CN[C@@H](C)C(=O)N[C@H](C(=O)N1CCC[C@H]1C(=O)N[C@@H]1CCCc2c(NC(=O)c3cccc4c3CCC[C@H]4NC(=O)[C@@H]3CCCN3C(=O)[C@@H](NC(=O)[C@H](C)NC)C3CCOCC3)cccc21)C1CCOCC1	7.00 to 8.00
CN[C@@H](C)C(=O)N[C@@H](C)C(=O)N1CCC[C@H]1C(=O)N[C@@H]1CCCc2c(-c3cccc4c3CCC[C@H]4NC(=O)[C@@H]3CCCN3C(=O)[C@H](C)NC(=O)[C@H](C)NC)cccc21	6.00 to 7.00
CN[C@@H](C)C(=O)N[C@H](C(=O)N1CCC[C@H]1C(=O)N[C@@H]1CCOc2c(-c3cccc4c3OCC[C@H]4NC(=O)[C@@H]3CCCN3C(=O)[C@@H](NC(=O)[C@H](C)NC)C(C)(C)C)cccc21)C(C)(C)C	7.00 to 8.00
CN[C@@H](C)C(=O)N[C@H](C(=O)N1CCC[C@H]1C(=O)N[C@@H]1CCOc2c(-c3cccc4c3OCC[C@H]4NC(=O)[C@@H]3CCCN3C(=O)[C@@H](NC(=O)[C@H](C)NC)C3CCCCC3)cccc21)C1CCCCC1	7.00 to 8.00
